experimental details: Plasma and CSF pharmacokinetic study, single sublingual, oral or subcutaneous dose, male Beagle dogs
Format: in vivo
conditions: male, beagle, dog, in vivo, sc, 1 mg/kg, plasma Cmax
readout: Cmax (ng/mL)
Report as a plain number; the unit ng/mL is understood.

// query I have this compound here, CN1CCc2cccc3c2[C@@H]1Cc1ccc(O)c(O)c1-3 , and I need its recorded Cmax.
// result 110

* * *

experimental details: in vivo
conditions: male, C57BL/6J, mouse, po, 25 mg/kg, CSF concentration, Mean
readout: concentration at 1 h (ng/mL)
Value expressed in ng/mL; do not type the unit.

// query What measured concentration at 1 h goes with CN1CCc2cccc3c2[C@@H]1Cc1ccc(O)c(O)c1-3 ?
// result 3.32

* * *

experimental details: in vivo
conditions: male, C57BL/6J, mouse, po, 25 mg/kg, Plasma concentration, Mean
readout: concentration at 2 h (ng/mL)
Quick note: give the figure in ng/mL, leave out the unit.

// query Using the record for CN1CCc2cccc3c2[C@@H]1Cc1ccc(O)c(O)c1-3 , report its concentration at 2 h.
// result 74.4

* * *

experimental details: in vivo
conditions: male, cynomolgus monkey, po, 10 mg/kg, Plasma concentration, fed male Cynomolgus Monkeys, 2 h, animal 168777C
readout: concentration at 2 h (ng/mL)
Numeric answer only, unit ng/mL assumed.

// query Entry CN1CCc2cccc3c2[C@@H]1Cc1ccc(O)c(O)c1-3 has what concentration at 2 h?
// result 6.27

* * *

experimental details: Plasma and CSF pharmacokinetic study, single sublingual, oral or subcutaneous dose, male Beagle dogs
Format: in vivo
conditions: male, beagle, dog, CSF, po, 10 mg/kg, male Beagle dogs (fasted), single PO 10 mg/kg, CSF, individual dogs; read-out: AUCinf
readout: AUC(0-inf) (ng·h/mL)
Hi! Could you send only the number? It should be in ng·h/mL, unit omitted.

// query Form field: reported AUC(0-inf) of CN1CCc2cccc3c2[C@@H]1Cc1ccc(O)c(O)c1-3
// result 181

* * *

experimental details: in vivo
conditions: male, cynomolgus monkey, po, 10 mg/kg, Plasma concentration, fed male Cynomolgus Monkeys, 4 h, animal 168779C
readout: concentration at 4 h

// query # query: concentration at 4 h of entry CN1CCc2cccc3c2[C@@H]1Cc1ccc(O)c(O)c1-3
// result 8.04 ng/mL

* * *

experimental details: in vivo
conditions: male, SD, rat, 0.88 mg/kg, plasma concentration
readout: concentration at 8 h (ng/mL)
Write down the numeric answer in ng/mL and omit the unit.

// query Using the record for CN1CCc2cccc3c2[C@@H]1Cc1ccc(O)c(O)c1-3 , report its concentration at 8 h.
// result 0.877

* * *

experimental details: in vivo
conditions: male, SD, rat
readout: concentration at 0.5 h (ng/g)
# number only, unit ng/g dropped from output

// query Returns the measured concentration at 0.5 h for the input compound. Input: CN1CCc2cccc3c2[C@@H]1Cc1ccc(O)c(O)c1-3
// result 299

* * *

experimental details: Plasma and CSF pharmacokinetic study, single sublingual, oral or subcutaneous dose, male Beagle dogs
Type: in vivo
conditions: dog, in vivo; male Beagle dogs (fasted), single SL 5 mg/kg, individual dogs; read-out: AUC Ratio (AUClast ratio of CSF to total plasma)
readout: Kp
No unit in the answer, please; the number alone is enough.

// query Reported Kp, compound CN1CCc2cccc3c2[C@@H]1Cc1ccc(O)c(O)c1-3 : ____
// result 0.337
